Molecular target: T1, LRRC7, Q96NW7
T1 sequence (Q96NW7 1440-1537, limits assumed, looked up): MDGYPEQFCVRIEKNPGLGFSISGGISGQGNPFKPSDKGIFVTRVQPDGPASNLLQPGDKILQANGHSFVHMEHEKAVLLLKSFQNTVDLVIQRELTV
Experiment: holdup assay
Parameters: key: below the threshold = too weak to quantify, mostly under pKd 3.1 to 4
Settings: plain residues with an end cap or a label only (N-terminal biotin on a linker: ado-ado)
measured parameter: pKd

QSYPSKHDYV [CLDN18, P56856] ... below the threshold
TISFTQTSQF [SLC1A1, P43005] ... below the threshold
EKCGKEFSEF [PRKACA, P17612] ... below the threshold
